The substances listed here are annotated with their Rel-to EFC.
- Tested on: HIV-1 infection of TZM-bl cells
- protocol.description: HIV-1 infectivity enhancement assay, β-galactosidase luminescence
- Assay type: cell-based
- test.settings: Fig S8 panels B, D; infectivity enhancement relative to EF-C
readout.name: Rel-to EFC

>>> recorded_result("KIKIQIN [JGB3]")
0.2651
>>> recorded_result("CKFKFQFNM [BL3]")
1.242
>>> recorded_result("KIKQIIN [JGA3]")
0.0398
>>> recorded_result("CKIKQII [MG4a]")
0.04182
>>> recorded_result("CKFKQFF [CK15]")
0.00675
>>> recorded_result("CKIKIQI [MG3b]")
1.019
>>> recorded_result("KIKQIINMWQ [JG2]")
0.3464
>>> recorded_result("CKFKFQF [BL4]")
1.233
>>> recorded_result("QCKIKQIINMWQ [reference compound]")
1
